Give IC50 for every item shown.
- test.target: active hMMP-9(cat)_His6 (UniProt P14780 107-449)
- Sequence (P14780 107-449): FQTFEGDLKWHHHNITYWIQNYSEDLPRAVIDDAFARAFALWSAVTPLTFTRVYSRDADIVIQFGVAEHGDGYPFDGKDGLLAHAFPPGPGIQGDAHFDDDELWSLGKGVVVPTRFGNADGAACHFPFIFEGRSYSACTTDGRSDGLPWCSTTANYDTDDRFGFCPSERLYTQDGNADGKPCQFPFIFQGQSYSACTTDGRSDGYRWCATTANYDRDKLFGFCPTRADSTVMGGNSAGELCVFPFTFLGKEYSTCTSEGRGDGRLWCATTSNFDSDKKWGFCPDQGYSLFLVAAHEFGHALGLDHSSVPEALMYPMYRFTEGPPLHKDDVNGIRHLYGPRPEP
- method.description: enzyme inhibition; substrate peptide
Write the value in nM as a bare number.

Ask: Which IC50 value is on record for M91002_G0 (designed binder) GSGMKETAAAKFERQHMDSPDLGTDDDDKAMAENLYFQGDPQFGLFSKYRTPNCRTGRGPACQMGFQPVCGSDMSTYANECTLCMKIREGGHNIKIIRNGPC ?
Reply: 3.6

Ask: Which IC50 value is on record for M91002_G2 (designed binder) GSGMKETAAAKFERQHMDSPDLGTDDDDKAMAENLYFQGDPQFGLFSKYRTPNCRTGRGPACQMGFQPVCGSDMSTYANECTLCMKIREGGHNIKIIRNGPCGG ?
Reply: 3.5

Ask: Which IC50 value is on record for active MMP-9-binding peptide M91002 (designed binder) GSGMKETAAAKFERQHMDSPDLGTDDDDKAMADIGSANSDPQFGLFSKYRTPNCRTGRGPACQMGFQPVCGSDMSTYANECTLCMKIREGGHNIKIIRNGPCGASAAA ?
Reply: 5

Ask: Which IC50 value is on record for M91002_G3 (designed binder) GSGMKETAAAKFERQHMDSPDLGTDDDDKAMAENLYFQGDPQFGLFSKYRTPNCRTGRGPACQMGFQPVCGSDMSTYANECTLCMKIREGGHNIKIIRNGPCGGG ?
Reply: 3.5
